- Assayed Target: full-length beta-catenin (Axin site) (Homo sapiens)
- Construct: 15 nM full-length beta-catenin, 20 nM FITC labeled peptide in buffer
- Test Protocol: Competition fluorescence polarization assay (Axin site probe)
- Type: binding
- Condition Info: competition fluorescence polarization, Table 2; read-out: in vitro FP EC50
pEC50: −log10 of the molar value.
Readout Label: pEC50

Request: Recorded pEC50 of CC[C@H](C)[C@@H]1NC(=O)[C@H](Cc2ccccn2)NC(=O)[C@H](C)NC(=O)[C@H](CC(=O)O)NC(=O)[C@H](CC(C)C)NC(=O)[C@H]([C@@H](C)CC)NC(=O)[C@](C)(NC(=O)[C@H](C)NC(C)=O)CCCCCCC=CCOC(=O)N2CC[C@@](C(=O)N[C@@H](Cc3ccccn3)C(=O)N[C@H](C(=O)N[C@@H](Cc3c[nH]c4ccccc34)C(N)=O)C(C)C)(C2)NC1=O (single isomer, unassigned) [FP0572c Isomer 1, Ac-A-R8-I-L-D-A-2pyr-I-MB-2pyr-V-W-NH2] , please.
Result: < 5.30

---

- Test Protocol: Solubility in DPBS (A280 of supernatant)
- Assay type: physicochemical
- Condition Info: DPBS, Table 2; read-out: Solubility
Numbered stars: 1 amine (or outer) side, 2 acyl side, 3 side chain; on linkers, the order of the positions; unused ones are H or OH. Bridge positions count the residues as written; N and C are the ends. Square brackets hold non-standard residues; d marks the D form. Peptide text beside a SMILES is read from it. dαMeDab(Me) = CN(CC[C@@](C)(N[*:1])C(=O)[*:2])[*:3]; X8 = CN(CC=[*:3])CCC[C@](C)(N[*:1])C(=O)[*:2]; X6 = CN(CC=[*:3])CC[C@](C)(N[*:1])C(=O)[*:2]; X5 = C[C@](CCCCCC=[*:3])(N[*:1])C(=O)[*:2]; X1 = O=C([C@]1(N[*:1])CCN([*:3])C1)[*:2]; X2 = O=C(OCC=CCOC(=O)[*:2])[*:1]; R5 = C=CCCC[C@@](C)(N)C(=O)O
Each entry below carries its reported log10 solubility.
Could you please treat all values as log10 of solubility in µM?

>  <Compound>
CC[C@H](C)[C@@H]1NC(=O)[C@H](Cc2c[nH]cn2)NC(=O)[C@H](C)NC(=O)[C@H](CC(=O)O)NC(=O)[C@H](CC(C)C)NC(=O)[C@H]([C@@H](C)CC)NC(=O)[C@](C)(NC(=O)[C@H](C)NC(C)=O)CCN(C)C(=O)OCC=CCOC(=O)N2CC[C@@](C(=O)N[C@@H](CCCNC(=N)N)C(=O)N[C@H](C(=O)N[C@@H](Cc3c[nH]c4ccccc34)C(N)=O)C(C)C)(C2)NC1=O [FP0597c, Ac-A-MG-I-L-D-A-H-I-MB-R-V-W-NH2] (Ac-A[dαMeDab(Me)]ILDAHI[X1]RVW-NH2; linker 2-9 via X2)

>  <Result Value>
1.99

$$$$

Request: Recorded log10 solubility of CC[C@H](C)[C@@H]1NC(=O)[C@H](Cc2c[nH]cn2)NC(=O)[C@H](C)NC(=O)[C@H](CC(=O)O)NC(=O)[C@H](CC(C)C)NC(=O)[C@H]([C@@H](C)CC)NC(=O)[C@](C)(NC(=O)[C@H](C)NC(C)=O)CCCCCC=CCN(C)CC[C@@](C)(C(=O)N[C@@H](CCCNC(=N)N)C(=O)N[C@H](C(=O)N[C@@H](Cc2c[nH]c3ccccc23)C(N)=O)C(C)C)NC1=O [FP0503a, Ac-A-R7-I-L-D-A-H-I-MF-R-V-W-NH2] (Ac-A[X5]ILDAHI[X6]RVW-NH2; staple 2-9) , please.
Result: 2.37

Request: Recorded log10 solubility of CC[C@H](C)[C@@H]1NC(=O)[C@H](Cc2c[nH]cn2)NC(=O)[C@H](C)NC(=O)[C@H](CC(=O)O)NC(=O)[C@H](CC(C)C)NC(=O)[C@H]([C@@H](C)CC)NC(=O)[C@](C)(NC(=O)[C@H](C)NC(C)=O)CCCC=CCN(C)CCC[C@@](C)(C(=O)N[C@@H](CCCNC(=N)N)C(=O)N[C@H](C(=O)N[C@@H](Cc2c[nH]c3ccccc23)C(N)=O)C(C)C)NC1=O [FP0510a, Ac-A-R5-I-L-D-A-H-I-MH-R-V-W-NH2] (Ac-A[R5]ILDAHI[X8]RVW-NH2; staple 2-9) , please.
Result: 2.22

---

- Test Protocol: Solubility in DPBS (A280 of supernatant)
- Format: physicochemical
- Condition Info: DPBS, Table 3 Part A
Each entry below carries its reported Solubility in DPBS.

Request: Recorded Solubility in DPBS of CC[C@H](C)[C@@H]1NC(=O)[C@H](Cc2c[nH]cn2)NC(=O)[C@H](C)NC(=O)[C@H](CC(=O)O)NC(=O)[C@H](CC(C)C)NC(=O)[C@H]([C@@H](C)CC)NC(=O)[C@](C)(NC(=O)[C@H](C)NC(C)=O)CCCC=CCOC(=O)N(C)CCC[C@@](C)(C(=O)N[C@@H](CCCNC(=N)N)C(=O)N[C@H](C(=O)N[C@@H](Cc2c[nH]c3ccccc23)C(N)=O)C(C)C)NC1=O (single isomer, unassigned) [FP0510c Isomer 2, Ac-A-R5-I-L-D-A-H-I-MH-R-V-W-NH2] , please.
Result: 31 (Isomer 2) μM

Request: Recorded Solubility in DPBS of CC[C@H](C)[C@@H]1NC(=O)[C@H](Cc2c[nH]cn2)NC(=O)[C@H](C)NC(=O)[C@H](CC(=O)O)NC(=O)[C@H](CC(C)C)NC(=O)[C@H]([C@@H](C)CC)NC(=O)[C@](C)(NC(=O)[C@H](C)NC(C)=O)CCCC=CCOC(=O)N(C)CCC[C@@](C)(C(=O)N[C@@H](CCCNC(=N)N)C(=O)N[C@H](C(=O)N[C@@H](Cc2c[nH]c3ccccc23)C(N)=O)C(C)C)NC1=O (single isomer, unassigned) [FP0510c Isomer 1, Ac-A-R5-I-L-D-A-H-I-MH-R-V-W-NH2] , please.
Result: 65 (Isomer 1) μM

Request: Recorded Solubility in DPBS of CC[C@H](C)[C@@H]1NC(=O)[C@H](Cc2c[nH]cn2)NC(=O)[C@H](C)NC(=O)[C@H](CC(=O)O)NC(=O)[C@H](CC(C)C)NC(=O)[C@H]([C@@H](C)CC)NC(=O)[C@](C)(NC(=O)[C@H](C)NC(C)=O)CCCCC=CCOC(=O)N(C)CCC[C@@](C)(C(=O)N[C@@H](CCCNC(=N)N)C(=O)N[C@H](C(=O)N[C@@H](Cc2c[nH]c3ccccc23)C(N)=O)C(C)C)NC1=O (single isomer, unassigned) [FP0511c Isomer 2, Ac-A-R6-I-L-D-A-H-I-MH-R-V-W-NH2] , please.
Result: 24 (Isomer 2) μM

---

- Assayed Target: full-length beta-catenin (Axin site) (Homo sapiens, UniProt P35222)
- Construct: 15 nM full-length beta-catenin, 20 nM FITC labeled peptide in buffer
- Sequence (P35222 whole entry): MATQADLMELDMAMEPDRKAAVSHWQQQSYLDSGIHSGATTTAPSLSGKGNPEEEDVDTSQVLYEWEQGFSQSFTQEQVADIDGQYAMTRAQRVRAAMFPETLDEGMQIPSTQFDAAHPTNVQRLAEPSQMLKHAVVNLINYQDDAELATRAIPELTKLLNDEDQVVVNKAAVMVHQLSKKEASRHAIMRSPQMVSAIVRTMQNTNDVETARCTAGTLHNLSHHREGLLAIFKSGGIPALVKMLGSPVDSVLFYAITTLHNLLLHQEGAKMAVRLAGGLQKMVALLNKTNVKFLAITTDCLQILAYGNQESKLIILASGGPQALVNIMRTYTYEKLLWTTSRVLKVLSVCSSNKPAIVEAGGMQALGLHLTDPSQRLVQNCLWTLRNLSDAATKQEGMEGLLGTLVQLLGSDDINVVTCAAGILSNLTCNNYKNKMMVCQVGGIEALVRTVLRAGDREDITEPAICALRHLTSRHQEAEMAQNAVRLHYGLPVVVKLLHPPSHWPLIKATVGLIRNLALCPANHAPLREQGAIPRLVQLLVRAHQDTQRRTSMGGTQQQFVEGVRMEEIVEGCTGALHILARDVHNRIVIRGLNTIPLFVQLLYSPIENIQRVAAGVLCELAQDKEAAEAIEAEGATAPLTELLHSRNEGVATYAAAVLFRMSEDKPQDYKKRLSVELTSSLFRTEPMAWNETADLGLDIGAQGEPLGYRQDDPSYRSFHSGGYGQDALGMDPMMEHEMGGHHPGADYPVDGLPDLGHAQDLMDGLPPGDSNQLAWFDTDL
- Test Protocol: Competition fluorescence polarization assay (Axin site probe)
- Type: binding
- Condition Info: competition fluorescence polarization, Table 2; read-out: in vitro FP EC50
pEC50: −log10 of the molar value. Numbered stars: 1 amine (or outer) side, 2 acyl side, 3 side chain; on linkers, the order of the positions; unused ones are H or OH. Bridge positions count the residues as written; N and C are the ends. Square brackets hold non-standard residues; d marks the D form. Peptide text beside a SMILES is read from it. X4 = O=C([C@]1(N[*:1])CCN(CC=[*:3])C1)[*:2]; R8 = C=CCCCCCC[C@@](C)(N)C(=O)O
Readout Label: pEC50

>  <Molecule>
CC[C@H](C)[C@@H]1NC(=O)[C@H](Cc2c[nH]cn2)NC(=O)[C@H](C)NC(=O)[C@H](CC(=O)O)NC(=O)[C@H](CC(C)C)NC(=O)[C@H]([C@@H](C)CC)NC(=O)[C@](C)(NC(=O)[C@H](C)NC(C)=O)CCCN(C)C(=O)OCC=CCCCC[C@@](C)(C(=O)N[C@@H](CCCNC(=N)N)C(=O)N[C@H](C(=O)N[C@@H](Cc2c[nH]c3ccccc23)C(N)=O)C(C)C)NC1=O [FP0507c, Ac-A-MI-I-L-D-A-H-I-S6-R-V-W-NH2]

>  <pEC50>
5.30 to 6.30

$$$$

Request: Recorded pEC50 of CC[C@H](C)[C@@H]1NC(=O)[C@H](Cc2c[nH]cn2)NC(=O)[C@H](C)NC(=O)[C@H](CC(=O)O)NC(=O)[C@H](CC(C)C)NC(=O)[C@H]([C@@H](C)CC)NC(=O)[C@](C)(NC(=O)[C@H](C)NC(C)=O)CCCCCCC=CCN2CC[C@@](C(=O)N[C@@H](CCCNC(=N)N)C(=O)N[C@H](C(=O)N[C@@H](Cc3c[nH]c4ccccc34)C(N)=O)C(C)C)(C2)NC1=O [FP0217a, Ac-A-R8-I-L-D-A-H-I-MB-R-V-W-NH2] (Ac-A[R8]ILDAHI[X4]RVW-NH2; staple 2-9) , please.
Result: < 5.30

Data origin: patent US11198713B2
